Assay: Photobleaching rate under white light from a xenon lamp
Assay type: physicochemical
Details: single exponential decay fit of absorbance
measuredQuantity: Photobleaching rate (Relative to unsubstituted dye)

# smilesNotation, recordedResult
records = [
    ("CCCCN(CCCC)c1ccc2cc(/C=C/c3cc[n+](CCC[N+](CC)(CC)CC)cc3)ccc2c1F", 0.83),
    ("CCCCN(CCCC)c1ccc2cc(/C=C(\\F)c3cc[n+](CCC[N+](CC)(CC)CC)cc3)ccc2c1F", 0.62),
    ("CCCCN(CCCC)c1ccc2cc(/C=C/c3cc[n+](CCC[N+](CC)(CC)CC)cc3F)ccc2c1", 0.63),
    ("CCCCN(CCCC)c1ccc2cc(/C=C(\\F)c3cc[n+](CCC[N+](CC)(CC)CC)cc3F)ccc2c1F", 0.89),
]

###

Assay: One-photon absorption spectra of dyes (λmax abs, logε)
Assay type: physicochemical
Details: Lipid vesicles

# smilesNotation, readingUnit, λmax abs
records = [
    ("CCCCN(CCCC)c1ccc2cc(/C=C(\\F)c3cc[n+](CCC[N+](CC)(CC)CC)cc3)ccc2c1", "nm", 488),
    ("CCCCN(CCCC)c1ccc2cc(/C=C/c3c(F)c[n+](CCC[N+](CC)(CC)CC)cc3F)ccc2c1", "nm", 511),
    ("CCCCN(CCCC)c1ccc2cc(/C=C/c3cc[n+](CCC[N+](CC)(CC)CC)cc3F)ccc2c1", "nm", 495),
]

###

Experiment: Fluorescence emission spectra and fluorescence quantum yield (FQY) of dyes
Type: physicochemical
Conditions: Ethanol
From the text: Similar methods were used to prepare additional dyes.
measuredQuantity: λmax em (nm)

# molecule, recordedResult
records = [
    ("CCCCN(CCCC)c1ccc2cc(/C=C(\\F)c3cc[n+](CCC[N+](CC)(CC)CC)cc3F)ccc2c1 [PY4160]", 710),
    ("CCCCN(CCCC)c1ccc2cc(/C=C/c3cc[n+](CCC[N+](CC)(CC)CC)cc3F)ccc2c1 [PY3128]", 720),
    ("CCCCN(CCCC)c1ccc2cc(/C=C/c3cc[n+](CCC[N+](CC)(CC)CC)cc3)ccc2c1F [PY3174]", 704),
    ("CCCCN(CCCC)c1ccc2cc(/C=C/c3cc[n+](CCC[N+](CC)(CC)CC)cc3)ccc2c1C(F)(F)F [PY4093]", 687),
    ("CCCCN(CCCC)c1ccc2cc(/C=C/c3cc[n+](CCC[N+](CC)(CC)CC)cc3F)ccc2c1F [PY3179]", 720),
    ("CCCCN(CCCC)c1ccc2cc(/C=C(\\F)c3cc[n+](CCC[N+](CC)(CC)CC)cc3)ccc2c1C(F)(F)F [PY4125]", 694),
    ("CCCCN(CCCC)c1ccc2cc(/C=C(\\F)c3cc[n+](CCC[N+](CC)(CC)CC)cc3)ccc2c1 [PY3006]", 720),
]
